Below is a list of entries, each paired with its recorded melting point value.

molecule=CCCc1c(OCCCSc2ccc(C(=O)CCC(=O)O)c(F)c2)ccc(C(C)=O)c1O quantity_name="melting point" assay_result="149 to 150 °C"
molecule="N=c1[nH]c2ccc(Cl)cc2c2nc(C3CCCO3)nn12 (centres undefined)" quantity_name="melting point" assay_result="203 to 206 °C"
molecule="COC(=O)C1=CCC2C(CCC3C(C)(C)CCCC23C)C(=O)C1 (centres undefined)" quantity_name="melting point" assay_result="93 to 94 °C"

With those in mind, consider the next molecule.
Value of measured melting point for the entry O=C(O)CCC(CCNCCc1ccccc1)n1nc(Cc2ccc(F)cc2)c2ccccc2c1=O (centres undefined) : 190 to 191 °C

Data origin, for the record: a melting point compilation (Tetko et al.; mined from patent text by program, amines drawn as free bases though some values may be those of a salt)
